B1: EPB41L3 (parent)
chain: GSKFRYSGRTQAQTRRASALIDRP

Variants of: B1
Test: protein stability index of a GFP-peptide fusion (GPS, HEK-293T) (PSI 1-6); higher = more stable;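 also: lentivirally expressed fusions sorted by FACS into six bins by GFP to DsRed ratio, PSI derived from sequencing read proportions per bin multiplied by bin number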
Settings: c terminus: a fixed tail appended
experimental-readout: protein stability index
No unit in the answer, only the number.

Quick one: protein stability index of G1H ? 3.03

Now consider I21F . 2.97

Now consider S7T . 2.95

Now consider K3N . 3.08

Now consider A12I . 3.07

Now consider P24V . 3.05

Now consider A17P . 2.96

Now consider A19M . 3.07

Now consider S2H . 2.98

Now consider Q11N . 3

More entries:
Quick one: protein stability index of Q13D ? 3.08

Now consider K3Q . 2.96

Now consider R9C . 2.94

Now consider L20Y . 3.02
